Biological target: GOPC, Q9HD26
Test: holdup assay
Design: key: below the threshold = too weak to quantify, mostly under pKd 3.1 to 4
Details: plain residues with an end cap or a label only (N-terminal biotin on a linker: ado-ado)
measured_attribute: pKd

SKENVQETQI [LRRC4B, Q9NT99]    3.99
HSGYRLNDYV [CLDN14, O95500]    below the threshold
IPLDGETEEL [MYOZ1, Q9NP98]    below the threshold
DTTVPESEDL [MYOZ2, Q9NPC6]    below the threshold
SSALYGESDL [ACTN2, P35609]    below the threshold
PLSPEQPTKL [TRIM50, Q86XT4]    below the threshold
EVNETDDTKM [KCNJ1, P48048]    below the threshold
YNNCLEILRV [DCAF7, P61962]    below the threshold
LSEFKAMDSI [CTNNA1, P35221]    below the threshold
SNAGNTATKA [NOSTRIN, Q8IVI9]    below the threshold

Please report pKd for every entry that follows.
1. PKRSFIESNV [TANC1, Q9C0D5]
2. VNKSKLLTDV [KCNA1, Q09470]
3. PAPSSGKDYV [CLDN1, O95832]

3.85
below the threshold
below the threshold
